Assay: in vitro
Type: cell-based, human
Details: human, katoiii cells, 0.1 μg/ml; read-out: Suppression
measure-name: cytotoxicity at 72 h (%)
Give your result in % as a bare value.

Entry under review: CCCCCCC(=O)CCCCCC/C=C/CC1OC(=O)C(N)(CO)C1O (stereo not shown) [Example 4] . Reported cytotoxicity at 72 h? 5.3

---

Test: in vitro
Assay type: cell-based, human
Details: human, u937 cells, 1.0 μg/ml; read-out: Suppression
measure-name: cytotoxicity at 72 h (%)
Your answer should be a plain number; it is taken to be in %.

The examples below pair each entry with its known result.
>>> recorded_measurement("CCCCCCC(=O)CCCCCC/C=C/CC1OC(=O)C(CO)(NC(C)=O)C1O (centres unmarked)")
0
>>> recorded_measurement("CCCCCCC(O)CCCCCC/C=C/CC(O)C(O)C(N)(CO)C(=O)O (centres unmarked)")
9.9
>>> recorded_measurement("CCCCCCC(O)CCCCCC/C=C/CC1OC(=O)C(N)(CO)C1O (centres unmarked)")
0.5
>>> recorded_measurement("CCCCCCC(O)CCCCCCCCCC1OC(=O)C(N)(CO)C1O (centres unmarked)")
7.2
>>> recorded_measurement("CCCCCCC(=O)CCCCCC/C=C/CC1OC(=O)C(N)(CO)C1O (centres unmarked)")
0

Reported cytotoxicity at 72 h, compound CCCCCCC(O)CCCCCCCCCC(O)C(O)C(N)(CO)C(=O)O (centres unmarked) : ____ 0

Need cytotoxicity at 72 h, item CCCCCCC(=O)CCCCCCCCCC(O)C(O)C(N)(CO)C(=O)O (centres unmarked) 0

Quick one: cytotoxicity at 72 h for CCCCCCC(=O)CCCCCCCCCC1OC(=O)C(N)(CO)C1O (centres unmarked) ? 0
